Data origin, for the record: paper PMC7587356

Please respond with reported mean (LOPAC_screen_w_protease) for every item in the list.
target_entity: SARS-CoV-2 3CLpro (Severe acute respiratory syndrome coronavirus 2)
assay_info: biochemical
Assay type: biochemical
Parameters: unit not given here
measurement_parameters: LOPAC1280 primary screen with protease, 5 µM compound, mean of the two replicates
Respond using a number only.

Entry NCCCP(=O)(O)O , mean (LOPAC_screen_w_protease) reported as 1.904

Entry O=C(CCCN1CCC(O)(c2ccc(Cl)cc2)CC1)c1ccc(F)cc1 , mean (LOPAC_screen_w_protease) reported as 1.809

Entry CC(C)NCC(O)COc1cccc2[nH]ccc12 (stereo not drawn) [S(-)-Pindolol] , mean (LOPAC_screen_w_protease) reported as 1.809

Entry C[N+](C)(C)CCOP(=O)([O-])OP(=O)([O-])OC[C@H]1O[C@@H](n2ccc(N)nc2=O)[C@H](O)[C@@H]1O.[Na+] [Citicoline sodium] , mean (LOPAC_screen_w_protease) reported as 2.039

Entry CCCCS(=N)(=O)CC[C@H](N)C(=O)O (stereo partly drawn) , mean (LOPAC_screen_w_protease) reported as 2.107

Entry Oc1cccc2c(O)nccc12 , mean (LOPAC_screen_w_protease) reported as 2.037

Entry NCCS(=O)O , mean (LOPAC_screen_w_protease) reported as 1.861

Entry CCCNC(=O)NS(=O)(=O)c1ccc(Cl)cc1 [Chlorpropamide] , mean (LOPAC_screen_w_protease) reported as 2.118

Entry COc1ccc(CCCOC(Cn2ccnc2)c2ccc(OC)cc2)cc1 (stereo not drawn) , mean (LOPAC_screen_w_protease) reported as 1.802

----------
target_entity: SARS-CoV-2 3CLpro (Severe acute respiratory syndrome coronavirus 2)
assay_info: biochemical
Type: biochemical
Design: unit not given here
measurement_parameters: sheet LOPAC_screen_w_protease; LOPAC1280 primary screen with protease, 5 µM compound; replicate 2
outcome_measure: Replicate_2
Respond using a number only.

Entry Cl.Cl.Cl.Ic1ccc(N2CCN(Cc3c[nH]c4ncccc34)CC2)cc1 [L-750,667 trihydrochloride] , Replicate_2 reported as 6.117

Entry COc1cc(C(O)CN)ccc1O.Cl (racemic) [(±)-Normetanephrine hydrochloride] , Replicate_2 reported as 3.864

Entry CNCCc1c[nH]c2ccc(O)cc12.O=C(O)C(=O)O , Replicate_2 reported as 5.354

Entry NC(N)=Nc1ccc2[nH]c3c(c2c1)C[C@@]1(O)[C@H]2Cc4ccc(O)c5c4[C@@]1(CCN2CC1CC1)[C@H]3O5.O=C(O)C(F)(F)F.O=C(O)C(F)(F)F , Replicate_2 reported as 3.515

Entry Cl.Cl.Fc1ccc(C(OCCN2CCN(CCCc3ccccc3)CC2)c2ccc(F)cc2)cc1 [GBR-12909 dihydrochloride] , Replicate_2 reported as 4.126

Entry Clc1ccc(N2C[C@H]3CC[C@@H](C2)N3)nn1 [DBO-83] , Replicate_2 reported as 4.581

Entry NCCCS(=O)(=O)O.[Na] [3-Amino-1-propanesulfonic acid sodium] , Replicate_2 reported as 4.97

Entry Cl.O=c1cc(N2CCOCC2)oc2c(-c3ccccc3)cccc12 [LY-294,002 hydrochloride] , Replicate_2 reported as 4.845

Entry C[C@]12CC[C@@H](O)C[C@@H]1CC[C@@H]1[C@@H]2CC[C@]2(C)[C@@H](C(=O)CO)CC[C@@H]12 , Replicate_2 reported as 7.796

Entry C[C@](N)(Cc1ccc(O)cc1)C(=O)O [L-alpha-Methyl-p-tyrosine] , Replicate_2 reported as 4.822

Entry COCc1nc2c([nH]1)c(=O)n(C)c(=O)n2CC(C)C , Replicate_2 reported as 4.4152

Entry CSc1nc(N)c2ncn([C@@H]3O[C@H](COP(=O)(O)OP(=O)(O)O)[C@@H](O)[C@H]3O)c2n1.[Na].[Na].[Na] , Replicate_2 reported as 4.739

Entry CC(N)(C(=O)O)c1ccc(C(=O)O)cc1 (racemic) [(±)-alpha-Methyl-4-carboxyphenylglycine] , Replicate_2 reported as 5.939

Entry Cc1cn[nH]c1.Cl [4-Methylpyrazole hydrochloride] , Replicate_2 reported as 6.559

Entry CCCN1CCC[C@@H]2Cc3nc(N)ncc3C[C@H]21.Cl.Cl [Quinelorane dihydrochloride] , Replicate_2 reported as 5.838

Entry COc1ccc2[nH]c(I)c(CCNC(C)=O)c2c1 [2-Iodomelatonin] , Replicate_2 reported as 4.28

Entry Cc1nc(N=Nc2cc(S(=O)(=O)[O-])c3cc([N+](=O)[O-])cc(S(=O)(=O)[O-])c3c2)c(COP(=O)([O-])[O-])c(C=O)c1O.[Na+].[Na+].[Na+].[Na+] [PPNDS tetrasodium] , Replicate_2 reported as 6.46

Entry O=C(O)C1CN(CCCP(=O)(O)O)CCN1 (racemic) [(±)-CPP] , Replicate_2 reported as 2.869

Entry Cl.O=C(CCCN1CCC2(CC1)C(=O)N(CCc1ccc(N=C=S)cc1)CN2c1ccccc1)c1ccc(F)cc1 , Replicate_2 reported as 4.448

Entry CN1CCN(C2Cc3ccccc3Sc3ccc(Cl)cc32)CC1.O=C(O)/C=C\C(=O)O (racemic) [(±)-Octoclothepin maleate] , Replicate_2 reported as 6.247

Entry CNc1ncnc2c1ncn2[C@H]1C[C@H](OP(=O)(O)O)[C@@H](COP(=O)(O)O)O1 [MRS 2179] , Replicate_2 reported as 3.917

Entry CC(C)NCC(O)c1cc(O)cc(O)c1.CC(C)NCC(O)c1cc(O)cc(O)c1.O=S(=O)(O)O (stereo not drawn) [Metaproterenol hemisulfate] , Replicate_2 reported as 6.586

Entry O=c1[nH]c2cc(Cl)c(Cl)cc2[nH]c1=O [6,7-Dichloroquinoxaline-2,3-dione] , Replicate_2 reported as 3.207

Entry CN1C2CCC1CC(NC(=O)c1nn(C)c3ccccc13)C2.O=C(O)/C=C\C(=O)O (stereo not drawn) [LY-278,584 maleate] , Replicate_2 reported as 5.61

Entry O=C(Nc1cccc(C(=O)Nc2ccc(S(=O)(=O)O)c3cc(S(=O)(=O)O)cc(S(=O)(=O)O)c23)c1)Nc1cccc(C(=O)Nc2ccc(S(=O)(=O)O)c3cc(S(=O)(=O)O)cc(S(=O)(=O)O)c23)c1 [NF 023, reference compound] , Replicate_2 reported as 6.375

Entry Cc1nnc2ccc(-c3cccc(C(F)(F)F)c3)nn12 , Replicate_2 reported as 6.265

Entry O=C(O)/C=C1\CCCc2ccccc2C1O (stereo not drawn) [NCS-382] , Replicate_2 reported as 6.599

Entry CC1OC(C[N+](C)(C)C)CS1.[I-] (stereo not drawn) [OXA-22 iodide] , Replicate_2 reported as 5.588

Entry COc1ccccc1N1CCN(CC(O)COc2cccc3ccccc23)CC1.Cl.Cl (stereo not drawn) [Naftopidil dihydrochloride] , Replicate_2 reported as 4.753

Entry OC1(c2ccc(Cl)cc2)CCN(Cc2c[nH]c3ccccc23)CC1 [L-741,626] , Replicate_2 reported as 3.869

Entry CC(N)Cc1c[nH]c2ccc(O)cc12.O=C(O)/C=C\C(=O)O (stereo not drawn) [alpha-Methyl-5-hydroxytryptamine maleate] , Replicate_2 reported as 7.342

Entry Cl.Cl.Cn1cnc(CCN)c1 [1-Methylhistamine dihydrochloride] , Replicate_2 reported as 5.677

Entry C#CCN1C(C)=C(C(=O)OC)C(c2cccc([N+](=O)[O-])c2)C(C(=O)OCC)=C1C (stereo not drawn) [MRS 1845] , Replicate_2 reported as 4.765

----------
Please respond with reported inhibition at 5 µM for every item in the list.
target_entity: SARS-CoV-2 3CLpro (Severe acute respiratory syndrome coronavirus 2, UniProt P0DTD1)
assay_info: biochemical
Type: biochemical
measurement_parameters: 4 h, LOPAC1280 primary screen with protease, 5 µM compound, replicate 1; read-out: Replicate_1 (LOPAC_screen_w_protease)
Counter-ions that a name gives are not always drawn.

Entry O=C1NC(=O)C(c2ccccc2)(c2ccccc2)N1 [Phenytoin sodium] , inhibition at 5 µM reported as 1.2%

Entry COc1ccc(CC(C)NCC(O)c2ccc(O)c(NC=O)c2)cc1 (centres unmarked) [Formoterol] , inhibition at 5 µM reported as 1.5%

Entry Cc1ccccc1/C=C/C1=NCCN1 [Metrazoline oxalate] , inhibition at 5 µM reported as 2.83%

Entry CN(C)c1nc(N)c(C(=O)NC(=N)N)nc1Cl [5-(N,N-Dimethyl)amiloride hydrochloride] , inhibition at 5 µM reported as 1.67%

Entry CN[C@@H]1C[C@@H](c2ccc(Cl)c(Cl)c2)c2ccccc21 [Indatraline hydrochloride] , inhibition at 5 µM reported as 1.51%

Entry OCCN1CCN(CCCN2c3ccccc3Sc3ccc(C(F)(F)F)cc32)CC1 [Fluphenazine dihydrochloride] , inhibition at 5 µM reported as 4.18%

Entry CN1CCN(CC(=O)N2c3ccccc3C(=O)Nc3cccnc32)CC1 [Pirenzepine dihydrochloride] , inhibition at 5 µM reported as 2.98%

Entry O=C(CCCN1CCC(O)(c2ccc(Cl)cc2)CC1)c1ccc(F)cc1 [Haloperidol] , inhibition at 5 µM reported as 2.99%

Entry COc1cc(-c2ccc(=O)[nH]n2)ccc1OC(F)F [Zardaverine] , inhibition at 5 µM reported as 2.27%

Entry OC[C@H]1O[C@@H](n2cnc3c(Nc4ccccc4)ncnc32)[C@H](O)[C@@H]1O [N6-Phenyladenosine] , inhibition at 5 µM reported as 2.83%

Entry CC(C)C(=O)c1c(C(C)C)nn2ccccc12 [Ibudilast] , inhibition at 5 µM reported as 1.64%

Entry CC(C)[C@@H]1NC(=O)[C@H](CCCCN)NC(=O)[C@@H](Cc2c[nH]c3ccccc23)NC(=O)[C@H](Cc2ccc(O)cc2)NC(=O)[C@H](C)N(C)C(=O)[C@H](Cc2ccccc2)NC1=O [Seglitide] , inhibition at 5 µM reported as 3.58%

Entry CCN1CCC[C@H]1CNC(=O)c1cc(S(N)(=O)=O)ccc1OC [(-)-Sulpiride] , inhibition at 5 µM reported as 0.997%

Entry CC(=O)Oc1ccccc1C(=O)O [Acetylsalicylic acid] , inhibition at 5 µM reported as 1.9%

Entry COc1ccccc1N1CCN(CCCCNC(=O)c2ccc3ccccc3c2)CC1 [BP 897] , inhibition at 5 µM reported as 0.668%

Entry C[N+]1(C)[C@@H]2CC[C@H]1C[C@@H](OC(=O)C(CO)c1ccccc1)C2 (some centres unmarked) [Atropine methyl bromide] , inhibition at 5 µM reported as 2.3%

Entry O=C(CCCN1CCC2(CC1)C(=O)NCN2c1ccccc1)c1ccc(F)cc1 [Spiperone hydrochloride] , inhibition at 5 µM reported as 2.31%

Entry NCCCCCC(=O)O [6-Aminohexanoic acid] , inhibition at 5 µM reported as 2.45%

Entry CCC(=O)c1ccc2c(c1)N(CCCN(C)C)c1ccccc1S2 [Propionylpromazine hydrochloride] , inhibition at 5 µM reported as 2.15%

Entry CCC1(C)CC(=O)NC1=O (centres unmarked) [Ethosuximide] , inhibition at 5 µM reported as 4.21%

Entry Nc1nc(OCc2ccccc2)c2nc[nH]c2n1 [O6-benzylguanine] , inhibition at 5 µM reported as 0.721%

Entry COc1cc2nc(N3CCN(C(=O)C4COc5ccccc5O4)CC3)nc(N)c2cc1OC (centres unmarked) [Doxazosin mesylate] , inhibition at 5 µM reported as 3.96%

Entry NNCc1cccc(O)c1 [3-Hydroxybenzylhydrazine dihydrochloride] , inhibition at 5 µM reported as 3.31%

Entry COC(=O)C1=CCCN(C)C1 [Arecoline hydrobromide] , inhibition at 5 µM reported as 1.64%

Entry O=C(CCCN1CCC(O)(c2cccc(C(F)(F)F)c2)CC1)c1ccc(F)cc1 [Trifluperidol hydrochloride] , inhibition at 5 µM reported as -0.00744%

Entry CCCN(CCC)CCc1ccc(O)c(O)c1 [Dipropyldopamine hydrobromide] , inhibition at 5 µM reported as 3.8%

Entry COc1ccc(CCCOC(Cn2ccnc2)c2ccc(OC)cc2)cc1 (centres unmarked) [SKF 96365] , inhibition at 5 µM reported as 1.52%

Entry C[N+](C)(C)CCOC(N)=O [Carbachol] , inhibition at 5 µM reported as 1.69%

Entry CN1C[C@H](C(=O)N[C@]2(C)O[C@@]3(O)[C@@H]4CCCN4C(=O)[C@H](Cc4ccccc4)N3C2=O)C[C@@H]2c3cccc4[nH]cc(c34)C[C@H]21 [Dihydroergotamine methanesulfonate] , inhibition at 5 µM reported as 2.09%

Entry CC(C)[N+]1(C)[C@@H]2CC[C@H]1C[C@@H](OC(=O)C(CO)c1ccccc1)C2 (some centres unmarked) [Ipratropium bromide] , inhibition at 5 µM reported as 1.02%

Entry CCCNC(=O)NS(=O)(=O)c1ccc(Cl)cc1 [Chlorpropamide] , inhibition at 5 µM reported as 1.51%

Entry CC(C[N+](C)(C)C)OC(N)=O (centres unmarked) [Bethanechol chloride] , inhibition at 5 µM reported as 0.465%

Entry O=C(O)c1ccccc1Nc1cccc(OCc2ccc3ccccc3n2)c1 [SR 2640] , inhibition at 5 µM reported as 1.95%

Entry CN1[C@@H]2CC[C@H]1C[C@@H](OC(=O)c1cc(Cl)cc(Cl)c1)C2 [3-Tropanyl-3,5-dichlorobenzoate] , inhibition at 5 µM reported as 2.08%

Entry CCCCS(=N)(=O)CC[C@H](N)C(=O)O (stereo partly drawn) [L-Buthionine-sulfoximine] , inhibition at 5 µM reported as 1.94%
